Tested on: Tetranychus urticae (Two-spotted spider mite)
Test: Tetranychus urticae (Two-spotted spider mite) mortality, sprayed bean leaf discs
Type: in vivo
Details: foliar, 192 h, 200 ppm spray on bean leaf discs, mixed ages, egg, larval and adult mortality after 8 days
quantity: pest or weed control at 200 ppm

mol: CCN(C(=O)c1ccccc1OC)c1cccc(C(=O)Nc2c(Cl)cc(C(F)(C(F)(F)F)C(F)(F)F)cc2OC(F)F)c1OC
targetUnderTest: Tetranychus urticae (Two-spotted spider mite)
resultValue: ≥ 80%

mol: Cc1cc(F)ccc1C(=O)Nc1cccc(C(=O)Nc2c(Cl)cc(C(F)(C(F)(F)F)C(F)(F)F)cc2OC(F)F)c1F
targetUnderTest: Tetranychus urticae (Two-spotted spider mite)
resultValue: ≥ 80%

mol: O=C(Nc1cccc(C(=O)Nc2c(Cl)cc(C(F)(C(F)(F)F)C(F)(F)F)cc2OC(F)F)c1F)c1ccc(F)c(C(F)(F)F)c1
targetUnderTest: Tetranychus urticae (Two-spotted spider mite)
resultValue: ≥ 80%

* * *

Test system: Tetranychus urticae (Two-spotted spider mite)
Assay: Tetranychus urticae (Two-spotted spider mite) mortality, sprayed bean leaf discs
Assay type: in vivo
Conditions: foliar, 192 h, 200 ppm spray on bean leaf discs, mixed ages, egg, larval and adult mortality after 8 days
# key: entry, value: pest or weed control at 200 ppm

mol: COc1c(NC(=O)c2ccccc2C)cccc1C(=O)Nc1c(Cl)cc(C(F)(C(F)(F)F)C(F)(F)F)cc1OC(F)F
pest or weed control at 200 ppm: ≥ 80%
--
mol: CCN(C(=O)c1ccc(F)cc1)c1cccc(C(=O)Nc2c(Br)cc(C(F)(C(F)(F)F)C(F)(F)F)cc2OC(F)F)c1OC
pest or weed control at 200 ppm: ≥ 80%
--
mol: COc1c(NC(=O)c2ccccc2)cccc1C(=O)Nc1c(Cl)cc(C(F)(C(F)(F)F)C(F)(F)F)cc1OC(F)F
pest or weed control at 200 ppm: ≥ 80%
--
mol: CCN(C(=O)c1ccc([N+](=O)[O-])cc1Cl)c1cccc(C(=O)Nc2c(Cl)cc(C(F)(C(F)(F)F)C(F)(F)F)cc2OC(F)F)c1OC
pest or weed control at 200 ppm: ≥ 80%
--
mol: CCN(C(=O)c1ccncc1)c1cccc(C(=O)Nc2c(Br)cc(C(F)(C(F)(F)F)C(F)(F)F)cc2OC(F)F)c1OC
pest or weed control at 200 ppm: ≥ 80%
--
mol: COc1c(NC(=O)c2ccc(F)cc2C)cccc1C(=O)Nc1c(Br)cc(C(F)(C(F)(F)F)C(F)(F)F)cc1OC(F)F
pest or weed control at 200 ppm: ≥ 80%

* * *

Test system: Tetranychus urticae (Two-spotted spider mite)
Experiment: Tetranychus urticae (Two-spotted spider mite) mortality, sprayed bean leaf discs
Assay type: in vivo
Details: foliar, 192 h, 200 ppm spray on bean leaf discs, mixed ages, egg, larval and adult mortality after 8 days

compound: CCN(C(=O)c1ccccc1)c1cccc(C(=O)Nc2c(Cl)cc(C(F)(C(F)(F)F)C(F)(F)F)cc2OC(F)F)c1F [Compound 119]
pest or weed control at 200 ppm: ≥ 80%
//
compound: COc1c(NC(=O)c2ccncc2)cccc1C(=O)Nc1c(Cl)cc(C(F)(C(F)(F)F)C(F)(F)F)cc1OC(F)F [Compound 16]
pest or weed control at 200 ppm: ≥ 80%
//
compound: N#Cc1ccc(C(=O)Nc2cccc(C(=O)Nc3c(Cl)cc(C(F)(C(F)(F)F)C(F)(F)F)cc3OC(F)F)c2F)cc1 [Compound 13]
pest or weed control at 200 ppm: ≥ 80%
//
compound: O=C(Nc1cccc(C(=O)Nc2c(Br)cc(C(F)(C(F)(F)F)C(F)(F)F)cc2OC(F)F)c1F)c1ccccc1F [Compound 83]
pest or weed control at 200 ppm: ≥ 80%
//
compound: CCN(C(=O)c1ccncc1)c1cccc(C(=O)Nc2c(Br)cc(C(F)(C(F)(F)F)C(F)(F)F)cc2OC(F)F)c1F [Compound 2]
pest or weed control at 200 ppm: ≥ 80%
//
compound: CCN(C(=O)c1ccc(C#N)cc1)c1cccc(C(=O)Nc2c(Br)cc(C(F)(C(F)(F)F)C(F)(F)F)cc2OC(F)F)c1OC [Compound 9]
pest or weed control at 200 ppm: ≥ 80%
//
compound: Cc1cc(C(F)(C(F)(F)F)C(F)(F)F)cc(OC(F)F)c1NC(=O)c1cccc(NC(=O)c2ccncc2)c1F [Compound 100]
pest or weed control at 200 ppm: ≥ 80%
